Reference for the values: ChEMBL document CHEMBL1201862

- System: OVCAR-4
- assay-explanation: NCI tumour cell line growth inhibition, 48 h
Active and inactive are the calls of the source. Rule as the data show it: active = GI50 up to about 1.1 µM and inactive = higher.
measurement-name: GI50

// below: answered molecules
molecule | GI50
C/C(=N\Nc1nc2ccccc2n1C)c1ccc2ccccc2n1 | 0.19 µM (active)
CCN(CC)CCCNC(=O)c1cc(-c2nccn2C)nc2ccccc12 | 61.2 µM (inactive)
Cc1cc(S(=O)(=O)Nc2n[nH]c(-c3ccc(Cl)cn3)n2)c(S)cc1Cl | 53.8 µM (inactive)
O=c1[nH]c(-c2ccccc2)nc2cc(Cl)ccc12 | > 100 µM (inactive)
O=C1C2ON3c4ccccc4C(=O)C3(c3ccccc3)C2C(=O)N1c1ccccc1 (configuration not stated) | > 100 µM (inactive)
c1ccc2sc(C3(N4CCCCC4)CCCCCC3)cc2c1 | 25.8 µM (inactive)

What does the data say about its GI50? Entry: "COc1ccc(O)c(C#N)c1C#N"
> 100 µM (inactive)

----------
- Test system: ACHN
- assay-explanation: NCI tumour cell line growth inhibition, 48 h
The source made the active and inactive calls. Cut-off read from the data, not from the text of the source: active = GI50 up to about 1.1 µM and inactive = higher.
A collection of compounds and their measured GI50

// below: answered compounds
compound | result
N=C(N)SCc1ccc2c(c1)S(=O)(=O)c1ccccc1O2 | 15.8 µM (inactive)
Cc1cc(SCC(=O)c2ccc(Br)cc2)cc(C)[o+]1 | 31.2 µM (inactive)
OC1(c2cccs2)c2cccc(Cl)c2C(O)(c2cccs2)c2c(Cl)cccc21 (stereo unspecified) | > 100 µM (inactive)
Cc1cc(Cc2cc(Cc3cc(C)cc(C(C)(C)C)c3O)c(C)cc2C)c(O)c(C(C)(C)C)c1 | 16.1 µM (inactive)
CC1(C)OC(CCC#N)CN1C(=O)OCc1ccccc1 (stereo unspecified) | > 100 µM (inactive)

What does the data say about its GI50? Entry: COC(=O)C(=O)C(C(C)=O)C(=O)C(=O)Nc1ccc(C)cc1C (stereo unspecified)
> 100 µM (inactive)

----------
A collection of compounds and their measured GI50
- Tested on: HCT-15
- assay-explanation: NCI tumour cell line growth inhibition, 48 h

// below: answered compounds
compound | result
CCCC(CC)c1c(O)c(O)c(C(CC)CCC)c(C(CC)CCC)c1C(CC)CCC (centres undefined) | > 10 µM
COC(=O)/C(C#N)=C(\Nc1ccccc1)N1CCOCC1 | > 100 µM
OC1(c2cccs2)c2cccc(Cl)c2C(O)(c2cccs2)c2c(Cl)cccc21 (centres undefined) | > 100 µM
CO[C@H]1[C@@H](O)[C@H](O[C@@H]2C[C@H]3CC[C@@H]4[C@H](CC[C@]5(C)[C@@H](C6=CC(=O)OC6)CC[C@]45O)[C@@]3(C)[C@H](OC(C)=O)C2)O[C@@H](C)[C@H]1O | 1.92 µM
Cc1ccc(/N=N/C2S/C(=C(\C#N)c3nc4ccccc4[nH]3)N(c3ccccc3)C2=O)cc1 (centres undefined) | > 100 µM

What does the data say about its GI50? Entry: "O=C(O)c1cc(Cl)cc(NC(=O)C(Cl)Cl)c1Cl"
> 100 µM

Now consider c1ccc(C2CC(N3CCOCC3)=Nc3ccccc3N2)cc1 (centres undefined) .
> 100 µM

Now consider COC(=O)c1cc(C(=CCC[C@H]2CC[C@@]3(C)C(CCC4C3CC[C@@]3(C)C4CC[C@@H]3C(C)CCCC(C)C)C2)c2cc(Cl)c(OC(=O)c3ccccc3)c(C(=O)OC)c2)cc(Cl)c1OC(=O)c1ccccc1 (some centres undefined) .
> 10 µM

Now consider "COC(=O)/C(=C/c1ccc(OC)cc1)C(C(=O)O)=C1CCCCC1" .
> 100 µM

Now consider "CS(=O)(=O)OCCN(CCOS(C)(=O)=O)c1ccc(/C=N/c2ccc(-c3csc(Cc4ccccc4)n3)cc2)c(Cl)c1" .
30.3 µM

Now consider "CCOC(=O)CNc1c(OCc2ccccc2)c(=O)c1=O" .
> 100 µM

Now consider "O=NN(CCCl)C(=O)N[C@H]1CC[C@H](C(=O)O)CC1" .
> 100 µM

Now consider "COC(=O)c1cc(OC)c(OC)c(OC)c1-c1cc2c(cc1C=O)OCO2" .
> 10 µM

Now consider "O=c1c(O)c(-c2ccccc2)n(O)c2ccc(Cl)cc12" .
16 µM

Now consider CCOC(=O)C1=C(C)N(C)C23OC4(C(=O)OC)CC2c2ccccc2C1N3C4=O (centres undefined) .
63.7 µM

Now consider "Nc1nc(N)c2ncn(Cc3ccccc3CCl)c2n1" .
> 100 µM

Now consider Cc1ccc2nc(CN3CCCC(O)C3)cc(=O)n2c1 (centres undefined) .
> 100 µM

Now consider O=C1NC(=O)C2C1C1C=C3c4ccccc4N(c4ccccc4)C32[C@H]2C(=O)NC(=O)[C@@H]12 (some centres undefined) .
> 100 µM

Now consider "CN1CCc2c(sc3ncn(Nc4ccc(Cl)cc4)c(=N)c23)C1" .
> 100 µM
